# System: SEM cells
# protocol-text: cell viability relative to DMSO control; higher = less cytotoxic
# measurement-parameters: RPMI 5 mM glucose + 10% FBS; 48 h; 0.19 µM
quantity-measured: cell viability (%)

>>> reported("CCC[C@H](NC(=O)/C(C#N)=C/c1cccc(Br)n1)c1ccccc1")
111
>>> reported("CC(C)OC(=O)OCOP(=O)(CO[C@H](C)Cn1cnc2c(N)ncnc21)OCOC(=O)OC(C)C.O=C(O)C=CC(=O)O")
124
>>> reported("Cc1ccccc1C(C(=O)NC1CCCCC1)N(C(=O)Cn1ccnc1C)c1cccc(F)c1 (stereo not drawn)")
114
>>> reported("Cc1c(CCOc2ccc(C(=O)O)cc2)c2cc(Cl)ccc2n1C(c1ccccc1)c1ccccc1")
104
>>> reported("COc1cc2nc(N(C)CCCNC(=O)C3CCCO3)nc(N)c2cc1OC (stereo not drawn)")
102
>>> reported("OC[C@H]1O[C@@H](O[C@@H]2[C@@H](CO)O[C@](O)(CO)[C@H]2O)[C@H](O)[C@@H](O)[C@H]1O")
97.2
>>> reported("O=C(NOCC(O)CO)c1cc(Br)c(F)c(F)c1Nc1ccc(I)cc1F (stereo not drawn)")
80.3
>>> reported("O=C1c2c(O)cc(O)cc2O[C@H](c2ccc(O)c(O)c2)[C@H]1O")
126
